Biological target: Glucagon-like peptide 1 receptor (Rattus norvegicus, UniProt P32301)
Sequence (P32301 whole entry): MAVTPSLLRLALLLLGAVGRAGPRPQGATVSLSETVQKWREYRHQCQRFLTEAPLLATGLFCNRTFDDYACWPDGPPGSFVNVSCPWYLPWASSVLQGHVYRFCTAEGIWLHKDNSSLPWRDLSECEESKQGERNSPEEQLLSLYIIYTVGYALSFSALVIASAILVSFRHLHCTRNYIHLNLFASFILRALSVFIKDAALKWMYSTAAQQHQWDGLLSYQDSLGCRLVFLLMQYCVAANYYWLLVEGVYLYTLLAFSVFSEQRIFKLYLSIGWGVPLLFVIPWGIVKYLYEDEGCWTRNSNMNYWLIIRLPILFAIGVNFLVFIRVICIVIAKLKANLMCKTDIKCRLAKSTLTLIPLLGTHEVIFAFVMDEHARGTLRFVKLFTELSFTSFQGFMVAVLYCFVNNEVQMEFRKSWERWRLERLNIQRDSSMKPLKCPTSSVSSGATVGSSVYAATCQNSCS
Assay: Positive allosteric modulator activity at GLP-1R in rat INS1 beta-cells assessed potentiation of GLP-1(7-36)NH2 induced insulin secretion at 0.1 nM incubated for 30 mins in presence of exendin(9-39)NH2 by ELISA

[
  {
    "Molecule": "FC(F)(F)c1ccc(-c2noc(CN3CCCC(CN4CCOCC4)C3)n2)cc1 (stereo unspecified)",
    "Unit Symbol": "nM",
    "IC50": 6.3
  }
]
